# Tested on: ACHN renal
# test-method-notes: NCI-60 one-dose screen, 48 h (100 = growth as untreated, 0 = no growth, -100 = all killed)
# experimental-parameters: 10 µM unless noted
# Protocol: Growth inhibition of the ACHN human tumor cell line is measured as a screen for anti-cancer activity. Cells are grown in 96 well plates and exposed to the test compound for 48 hours. Compounds are tested at a single concentration, which is 10^-5 M for most compounds. The reported endpoint is percent growth (GI% or GIPRCNT), where numbers from 0 - 100% represent growth inhibition, and numbers from -100% - 0 represent cell death. For example, a value of 40 represents 60% growth inhibition. […]
About 83,000 compounds went through this panel and 20% of them were active in at least one assay; those are over-represented in the sample as a whole.
assay-endpoint: growth (%)
Use % as the unit, but write only the number.

Recorded growth, per entry:
O=C1/C(=C/c2ccc(Cl)cc2)CN(Cc2cn(CCNc3ccnc4cc(Cl)ccc34)nn2)C/C1=C\c1ccc(Cl)cc1    -100
CC(C)C1=CC2=C(C=O)C[C@@H]3[C@](C)(CCC[C@@]3(C)C(=O)OCC#CCN3CCCC3)[C@H]2CC1    97.3
CN(CCCCCl)P(=O)(OCc1ccc([N+](=O)[O-])o1)C(F)(F)C[C@H](NC(=O)CNC(=O)c1ccc(N=[N+]=[N-])cc1)C(=O)NCCc1ccc(O)cc1 (stereo not given in full)    106
CC(C)(C)n1cc(-c2ccnc(NCCNS(=O)(=O)c3ccc(F)cc3)c2)c(-c2cccc(O)c2)n1    63

Query :: // growth lookup, key: C=C(C)[C@@H]1C[C@@H]2Cc3ccc(Cl)c(C)c3N1O2
Result :: 96.8

###

# Tested on: PC-3 prostate
# test-method-notes: NCI-60 one-dose screen, 48 h
# experimental-parameters: 10 µM unless noted
The panel holds about 83,000 compounds, 20% with a hit somewhere; the sample as a whole holds those more often. Calls of active or inactive are those of the source. Rule for the calls: active = growth percent below 10; inactive = the rest.
Write down one outcome, taken from 1 = active, 0 = inactive

Example cases with answers are listed next.
COc1ccc(C2C(C#N)=C(N)Oc3c2ccc2ccccc32)cc1 (stereo not given)    0
CC(=O)Oc1csc(N(C(C)=O)c2cc(C(=O)O)cc(C(=O)O)c2)n1    1
COc1cc(/C=C/C(=O)c2c(C)nc3ccccc3c2C)ccc1OCCCCOc1cc2c(cc1OC)C(=O)N1CCC[C@H]1C=N2    1
Nc1nc(-c2ccccc2)c(CCCOc2ccc(NC(=O)CBr)cc2)c(=O)[nH]1    0

Query :: Please state the recorded outcome for this compound: CCn1c2ccccc2c2cc(NC(=O)Nc3ccc([N+](=O)[O-])cc3C)ccc21
Result :: 0

###

# Tested on: NCI-H226 lung
# test-method-notes: NCI-60 one-dose screen, 48 h (100 = growth as untreated, 0 = no growth, -100 = all killed)
# experimental-parameters: 10 µM unless noted
Compounds without any hit were thinned out: in the full panel of roughly 83,000, 20% have a hit.
assay-endpoint: growth (%)
Only the number, expressed in %, is required.

CC(C)CC1NC(C)(C)CO1 (stereo not given)    107
COC(=O)c1cc(=O)nc(N/N=C/c2ccco2)s1    97.8
CN1C(=O)N(C)C2C1NN=c1s/c(=C\C=C\c3ccccc3)c(=O)n12 (stereo not given)    61.9
O=C(NS(=O)(=O)c1ccccc1)n1cc(-c2ccncc2)c(-c2ccc(Cl)c(O)c2)n1    103

Query :: Sample CCCCCCCCCCCC(=O)NCCC[N+](C)(C)CC(=O)[O-] — what was its growth?
Result :: 93.8

Query :: Now consider CCCCCc1cc[n+](CC(=O)c2ccc([N+](=O)[O-])cc2)cc1 .
Result :: 96.5

Query :: Try O=C1c2c(c3c4ccccc4n(CCCCCCBr)c3c3[nH]c4ccccc4c23)C(=O)N1O next.
Result :: 70.5
